target: T1, E. coli 70S ribosome particle (E. coli); test: ITC, 30 °C, peptide titrated into E. coli 70S ribosome
T1 construct: also called ^Ec70S
Square brackets hold non-standard residues; d marks the D form. Ends that are not written are not given here. Cha = N[C@@H](CC1CCCCC1)C(=O)O

binder	ΔG
VDKPPYLPRPRPPR[dR]IYN[dR]NGPR[Cha]FQLD-OH (Control fusion peptide with scrambled P7; also called Onc112-Scr) [P120 (Onc112-P7Scr), VDKPPYLPRPRPPRrIYNrNGPRChaFQLD-OH]	-9.85 kcal/mol
VDKPPYLPRPRPPR[dR]IYN[dR]-NH2 (also called CA3 28; CA3-28) [P28 (Onc112), VDKPPYLPRPRPPRrIYNr-NH2]	-9.82 kcal/mol
VDKPPYLPRPRPPR[dR]IYN[dR]NGPRQ[Cha]DLF-OH (Fusion of Onc112 and P7; the printed Mw 3472.08 agrees with that N; also called CA3-30; Onc-P7) [P30 (Onc112-P7), VDKPPYLPRPRPPRrIYNrNGPRQChaDLF-OH]	-9.92 kcal/mol
VDKGSYLPRPTPPRPIYNRN-NH2 (Bought from Novopro; also called unglycosylated pyrrhocoricin) [Py (Pyrrhocoricin), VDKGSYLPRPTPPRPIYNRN-NH2]	-10.9 kcal/mol
